Data provenance: patent US20150218212A1

# System: HCC-2998
# Procedure Text: NCI screening panel, HCC-2998 (Colon Cancer)
# Type: cell-based, human
Reported Log10LC50 values for a set of molecules
Quick one: just the number, no unit, thanks!

Field: example entries. Status: answers known.
Item Smiles	Numeric Result
CC(C)C[C@H](NC(=O)[C@H](COC(F)F)NC(=O)CN1CCOCC1)C(=O)N[C@@H](COC(F)F)C(=O)N[C@@H](CC(C)C)C(=O)[C@@]1(C)CO1	−7.16
CC(C)C[C@H](NC(=O)[C@H](COC(F)F)NC(=O)[C@H](COC(F)F)NC(=O)[C@H](CCc1ccccc1)NC(=O)CN1CCOCC1)C(=O)[C@@]1(C)CO1	−6.55
CC(C)C[C@H](NC(=O)[C@H](COC(F)F)NC(=O)CN1CCOCC1)C(=O)N[C@@H](Cc1ccccc1)C(=O)N[C@@H](Cc1ccccc1)C(=O)[C@@]1(C)CO1	−7.18

Which value of Log10LC50 has been reported for "CC(C)C[C@H](NC(=O)[C@H](Cc1ccccc1)NC(=O)[C@H](COC(F)F)NC(=O)[C@H](COC(F)F)NC(=O)CN1CCOCC1)C(=O)[C@@]1(C)CO1" in the records?
−6.95

---

Reported Log10TGI50 values for a set of molecules
# Test system: IGROV1
# Procedure Text: NCI screening panel, IGROV1 (Ovarian Cancer)
# Type: cell-based, human
Quick one: just the number, no unit, thanks!

Field: example entries. Status: answers known.
Molecule	Quantity Name	Numeric Result
CC(C)C[C@H](NC(=O)[C@H](Cc1ccccc1)NC(=O)[C@H](COC(F)F)NC(=O)[C@H](COC(F)F)NC(=O)CN1CCOCC1)C(=O)[C@@]1(C)CO1 [Example 11]	Log10TGI50	−4.36
CC(C)C[C@H](NC(=O)[C@H](COC(F)F)NC(=O)CN1CCOCC1)C(=O)N[C@@H](Cc1ccccc1)C(=O)N[C@@H](Cc1ccccc1)C(=O)[C@@]1(C)CO1 [Example 3]	Log10TGI50	−7.02
CC(C)C[C@H](NC(=O)[C@H](COC(F)F)NC(=O)[C@H](COC(F)F)NC(=O)[C@H](CCc1ccccc1)NC(=O)CN1CCOCC1)C(=O)[C@@]1(C)CO1 [Example 7]	Log10TGI50	−5.55
CC(C)C[C@H](NC(=O)[C@H](COC(F)F)NC(=O)CN1CCOCC1)C(=O)N[C@@H](Cc1ccccc1)C(=O)N[C@@H](CC(C)C)C(=O)[C@@]1(C)CO1 [Example 2]	Log10TGI50	−6.66
CC(C)C[C@H](NC(=O)[C@H](COC(F)F)NC(=O)CN1CCOCC1)C(=O)N[C@@H](COC(F)F)C(=O)N[C@@H](CC(C)C)C(=O)[C@@]1(C)CO1 [Example 1]	Log10TGI50	−6.40

Requested read-out Log10TGI50, target or system IGROV1, entry CC(C)C[C@H](NC(=O)[C@H](COC(F)F)NC(=O)CN1CCOCC1)C(=O)N[C@@H](COC(F)F)C(=O)N[C@@H](Cc1ccccc1)C(=O)[C@@]1(C)CO1 [Example 4]
−5.57

Requested read-out Log10TGI50, target or system IGROV1, entry CC(C)C[C@H](NC(=O)[C@H](COC(F)F)NC(=O)[C@H](COC(F)F)NC(=O)[C@H](COC(F)F)NC(=O)CN1CCOCC1)C(=O)[C@@]1(C)CO1 [Example 17]
−5.82

---

# Tested on: RPMI-8226
# Procedure Text: NCI screening panel, RPMI-8226 (Leukemia)
# Format: cell-based, human
# true = Log10TGI50 below -7 (exclusive); false = Log10TGI50 at/above -7

Field: example entries. Status: answers known.
Compound	Label
CC(C)C[C@H](NC(=O)[C@H](COC(F)F)NC(=O)CN1CCOCC1)C(=O)N[C@@H](Cc1ccccc1)C(=O)N[C@@H](CC(C)C)C(=O)[C@@]1(C)CO1 [Example 2]	true
CC(C)C[C@H](NC(=O)[C@H](COC(F)F)NC(=O)CN1CCOCC1)C(=O)N[C@@H](Cc1ccccc1)C(=O)N[C@@H](Cc1ccccc1)C(=O)[C@@]1(C)CO1 [Example 3]	true
CC(C)C[C@H](NC(=O)[C@H](COC(F)F)NC(=O)[C@H](COC(F)F)NC(=O)[C@H](COC(F)F)NC(=O)CN1CCOCC1)C(=O)[C@@]1(C)CO1 [Example 17]	false

Attention now shifts to the item below.
Dear colleague, could you confirm whether Log10TGI50 of CC(C)C[C@H](NC(=O)[C@H](COC(F)F)NC(=O)CN1CCOCC1)C(=O)N[C@@H](COC(F)F)C(=O)N[C@@H](Cc1ccccc1)C(=O)[C@@]1(C)CO1 [Example 4] falls below -7? Thanks.
false

---

# Test system: ACHN
# Procedure Text: NCI screening panel, ACHN (Renal Cancer)
# Format: cell-based, human
Reported Log10GI50 values for a set of compounds
Quick one: just the number, no unit, thanks!

Which value of Log10GI50 has been reported for CC(C)C[C@H](NC(=O)[C@H](Cc1ccccc1)NC(=O)[C@H](COC(F)F)NC(=O)[C@H](COC(F)F)NC(=O)CN1CCOCC1)C(=O)[C@@]1(C)CO1 [Example 11] in the records?
−6.40

Which value of Log10GI50 has been reported for CC(C)C[C@H](NC(=O)[C@H](COC(F)F)NC(=O)[C@H](COC(F)F)NC(=O)[C@H](COC(F)F)NC(=O)CN1CCOCC1)C(=O)[C@@]1(C)CO1 [Example 17] in the records?
−5.55

---

Reported remaining activity at 2 mg/kg values for a set of compounds
# Tested On: proteasome Trypsin-like (T-L) activity (Mus musculus, UniProt P70195+Q9R1P1)
# Construct: RBCs were lysed with assay lysis buffer and incubated on ice for 30 minutes; from tissue; host or cells: red blood cells of NOD/SCID mice
# Procedure Text: Pharmacodynamic proteasome activity in murine red blood cells, T-L
# Assay type: in vivo, NOD/SCID mice
# Condition Context: iv, mice, 2 mg/kg i.v., time 0, read-out: Trypsin-like (T-L) mean residual activity relative to vehicle treated controls
Express it in %; write the number only.

Compound	Result Unit	remaining activity at 2 mg/kg
CC(C)C[C@H](NC(=O)[C@H](COC(F)F)NC(=O)CN1CCOCC1)C(=O)N[C@@H](COC(F)F)C(=O)N[C@@H](Cc1ccccc1)C(=O)[C@@]1(C)CO1 [Example 4]	%	100
CC(C)C[C@H](NC(=O)[C@H](COC(F)F)NC(=O)CN1CCOCC1)C(=O)N[C@@H](Cc1ccccc1)C(=O)N[C@@H](CC(C)C)C(=O)[C@@]1(C)CO1 [Example 2]	%	100

Which value of remaining activity at 2 mg/kg has been reported for CC(C)C[C@H](NC(=O)[C@H](COC(F)F)NC(=O)CN1CCOCC1)C(=O)N[C@@H](Cc1ccccc1)C(=O)N[C@@H](Cc1ccccc1)C(=O)[C@@]1(C)CO1 [Example 3] in the records?
100

---

Reported Log10GI50 values for a set of molecules
# Tested on: 786-0
# Procedure Text: NCI screening panel, 786-0 (Renal Cancer)
# Type: cell-based, human
Quick one: just the number, no unit, thanks!

Molecule	Log10GI50
CC(C)C[C@H](NC(=O)[C@H](Cc1ccccc1)NC(=O)[C@H](COC(F)F)NC(=O)[C@H](COC(F)F)NC(=O)CN1CCOCC1)C(=O)[C@@]1(C)CO1 [Example 11]	−6.66
CC(C)C[C@H](NC(=O)[C@H](COC(F)F)NC(=O)[C@H](COC(F)F)NC(=O)[C@H](CCc1ccccc1)NC(=O)CN1CCOCC1)C(=O)[C@@]1(C)CO1 [Example 7]	−6.45
CC(C)C[C@H](NC(=O)[C@H](COC(F)F)NC(=O)CN1CCOCC1)C(=O)N[C@@H](COC(F)F)C(=O)N[C@@H](CC(C)C)C(=O)[C@@]1(C)CO1 [Example 1]	−6.60
CC(C)C[C@H](NC(=O)[C@H](COC(F)F)NC(=O)[C@H](COC(F)F)NC(=O)[C@H](COC(F)F)NC(=O)CN1CCOCC1)C(=O)[C@@]1(C)CO1 [Example 17]	−5.99

Requested read-out Log10GI50, target or system 786-0, entry CC(C)C[C@H](NC(=O)[C@H](COC(F)F)NC(=O)CN1CCOCC1)C(=O)N[C@@H](COC(F)F)C(=O)N[C@@H](Cc1ccccc1)C(=O)[C@@]1(C)CO1 [Example 4]
−6.44

Requested read-out Log10GI50, target or system 786-0, entry CC(C)C[C@H](NC(=O)[C@H](COC(F)F)NC(=O)CN1CCOCC1)C(=O)N[C@@H](Cc1ccccc1)C(=O)N[C@@H](CC(C)C)C(=O)[C@@]1(C)CO1 [Example 2]
−7.09

Requested read-out Log10GI50, target or system 786-0, entry CC(C)C[C@H](NC(=O)[C@H](COC(F)F)NC(=O)CN1CCOCC1)C(=O)N[C@@H](Cc1ccccc1)C(=O)N[C@@H](Cc1ccccc1)C(=O)[C@@]1(C)CO1 [Example 3]
−7.22
